test: chemical genetic growth profiling, strain panel (AID 1159580);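 note: tested at 20 µM; growth read once vehicle control cultures reached saturation at 30 °C; 1 = growth at the plate median or of vehicle wells; lower values mean less growth of the strain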; conditions: S. cerevisiae deletion strains, growth OD, locus YOL006C, strain TOP1, hits give low values
About 2,000 (36%) of roughly 5,500 compounds were called active. Another 18% or so got no clear call; they are omitted. Some of the results follow.
READOUT_LABEL: normalized growth

MOLECULE | READOUT_LABEL | NUMBER
C=CCc1ccccc1OCC(O)CNC(C)C (configuration not stated) | normalized growth | 1.05
O=C(O)/C=C(\CC(=O)O)C(=O)O | normalized growth | 0.969
O=C(N/N=C\c1ccccc1Cl)c1cccnc1 | normalized growth | 1.03
N/C(=N/OS(=O)(=O)c1ccc(Cl)cc1)c1ccc(C(F)(F)F)cc1 | normalized growth | 0.897
C=CCCCCCCCCCCCC(O)CC(O)CO (configuration not stated) | normalized growth | 0.808
CC(C)(Oc1ccc(Cl)cc1)C(=O)O | normalized growth | 0.941
COC(=O)c1cn(Cc2ccc(C(F)(F)F)cc2)cc(F)c1=O | normalized growth | 1.04
